SYSTEM_UNDER_TEST: T1, PGMVKSK(biotin) peptide (PGXVKSK(biotin), X = Met)
T1 construct: also called Met at P3
T1 peptide: PGMVKSK(Biotin)
PROTOCOL_SUMMARY: BLI, biotinylated peptide on streptavidin biosensor
No end group written: not given here. *: point of attachment. Biotin = O=C1N[C@H]2[C@H](CS[C@H]2CCCCC(=O)*)N1
PROPERTY_NAME: % of steady-state BLI response relative to PGLVKSK(biotin)

>  <BINDER>
GID4 A252V-S253T-S283F triple mutant variant (residues 116-300), purified with N-terminal His-tag (designed binder, not shown: N-terminal six-histidine tag and TEV protease recognition site from the pET21(+) construct) GVATSLLYSGSKFRGHQKSKGNSYDVEVVLQHVDTGNSYLCGYLKIKGLTEEYPTLTTFFEGEIISKKHPFLTRKWDADEDVDRKHWGKFLAFYQYAKSFNSDDFDYEELKNGDYVFMRWKEQFLVPDHTIKDISGVTFAGFYYICFQKSAASIEGYYYHRSSEWYQFLNLTHVPEHSAPIYEFR

>  <RECORDED_MEASUREMENT>
> 69%

$$$$
